target: Mitogen-activated protein kinase 10 (Homo sapiens); assay: Dose response biochemical screening assay for inhibitors of c-Jun N-Terminal Kinase 3 (JNK3). [Related pubchem assays: 746 ]
Sequence (P53779 whole entry): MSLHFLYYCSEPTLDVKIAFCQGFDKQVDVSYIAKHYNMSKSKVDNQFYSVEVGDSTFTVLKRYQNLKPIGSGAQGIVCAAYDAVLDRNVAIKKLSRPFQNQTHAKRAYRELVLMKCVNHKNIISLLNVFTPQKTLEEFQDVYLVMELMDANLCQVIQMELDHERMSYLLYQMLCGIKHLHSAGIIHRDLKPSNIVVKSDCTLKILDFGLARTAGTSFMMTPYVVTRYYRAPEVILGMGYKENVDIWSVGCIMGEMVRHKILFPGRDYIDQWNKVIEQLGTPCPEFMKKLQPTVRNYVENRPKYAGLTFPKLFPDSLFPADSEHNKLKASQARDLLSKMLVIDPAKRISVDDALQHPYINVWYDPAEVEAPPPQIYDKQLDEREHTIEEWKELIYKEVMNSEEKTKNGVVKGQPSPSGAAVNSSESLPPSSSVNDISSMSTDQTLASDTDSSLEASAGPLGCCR
reported endpoint: IC50

[
  {
    "compound": "COc1cc(C(=O)NCc2cn3ccsc3n2)cc(OC)c1OC",
    "target or system": "Mitogen-activated protein kinase 10 (Homo sapiens)",
    "reported endpoint": "IC50",
    "experimental result": "53.1 µM (not active)"
  },
  {
    "compound": "O=C(c1ccccc1)c1nc[nH]c1C(=O)Nc1ccccn1",
    "target or system": "Mitogen-activated protein kinase 10 (Homo sapiens)",
    "reported endpoint": "IC50",
    "experimental result": "> 93.1 µM (not active)"
  },
  {
    "compound": "Cc1ccnc(NC(=O)CSc2cc(=O)n(C)c3ccccc23)c1",
    "target or system": "Mitogen-activated protein kinase 10 (Homo sapiens)",
    "reported endpoint": "IC50",
    "experimental result": "> 93.1 µM (not active)"
  }
]

QUERY: Requested field: IC50. Item: COc1ccc(C2C(C(=O)NCc3ccco3)CCC(=O)N2c2ccc(OC)cc2)cc1 (centres undefined)
RESULT: > 93.1 µM (not active)

---

target: Replicative DNA helicase DnaB (Mycobacterium tuberculosis, UniProt P9WMR3); experiment: DnaB intein splicing inhibitors, dose response, biochemical, cell-free fluorescence (AID 449749); format: functional
Calls of active or inactive are those of the source.
Your response should consist of one outcome taken from 1 (active), 0 (inactive)

[
  {
    "molecule": "COc1ccc(OC)c(-c2[nH]nc3c2C(c2ccco2)C(C#N)=C(N)O3)c1 (stereo unspecified)",
    "class label": 1
  },
  {
    "molecule": "C/C(CC(=O)Nc1ccccn1)=N\\NC(=O)c1ccncc1",
    "class label": 1
  },
  {
    "molecule": "O=c1[nH]c(N2CCOCC2)cc2ccccc12",
    "class label": 0
  },
  {
    "molecule": "CCOC(=O)c1nnc(-c2ccccc2)nc1Sc1ccccc1Cl",
    "class label": 1
  },
  {
    "molecule": "CC(C)OC(=O)CN1C(=O)C(=O)c2ccccc21",
    "class label": 1
  }
]

QUERY: Hi, do you know how COc1cccc(CN2CCN(Cc3ccc(C#CC(C)(C)O)s3)CC2CCO)c1 (stereo unspecified) came out in this test?
RESULT: 0

---

test: fluconazole-exposed Candida albicans growth modulators – fluorescence, retest, confirmation (AID 2467); type: functional, cell-based
Active and inactive are the calls of the source.
reported endpoint: EC50

Recorded EC50, per entry:
[
  {
    "smiles data": "Sc1nc2cc(Cl)c3cccnc3c2o1",
    "EC50": "> 38 µM (not active)"
  },
  {
    "smiles data": "Cc1cc(C)c(NS(=O)(=O)c2cccc3cccnc23)c(C)c1",
    "EC50": "> 38 µM (not active)"
  },
  {
    "smiles data": "CCCCCCCC[n+]1cccc2c3ccccc3ccc21",
    "EC50": "2.81 µM (active)"
  }
]

For the next question, use this molecule.
QUERY: Please report the recorded EC50 for O=CNCCCc1nc2ccccc2n1Cc1cccc2ccccc12 .
RESULT: 4.77 µM (active)

---

target: UniProt P33261; test: Cytochrome panel assay with activity outcomes. Panel member name: p450-cyp2c19 Compounds with AC50 equal or less than 10 uM are considered active; format: functional; settings: read-out: AC50
Sequence (P33261 whole entry): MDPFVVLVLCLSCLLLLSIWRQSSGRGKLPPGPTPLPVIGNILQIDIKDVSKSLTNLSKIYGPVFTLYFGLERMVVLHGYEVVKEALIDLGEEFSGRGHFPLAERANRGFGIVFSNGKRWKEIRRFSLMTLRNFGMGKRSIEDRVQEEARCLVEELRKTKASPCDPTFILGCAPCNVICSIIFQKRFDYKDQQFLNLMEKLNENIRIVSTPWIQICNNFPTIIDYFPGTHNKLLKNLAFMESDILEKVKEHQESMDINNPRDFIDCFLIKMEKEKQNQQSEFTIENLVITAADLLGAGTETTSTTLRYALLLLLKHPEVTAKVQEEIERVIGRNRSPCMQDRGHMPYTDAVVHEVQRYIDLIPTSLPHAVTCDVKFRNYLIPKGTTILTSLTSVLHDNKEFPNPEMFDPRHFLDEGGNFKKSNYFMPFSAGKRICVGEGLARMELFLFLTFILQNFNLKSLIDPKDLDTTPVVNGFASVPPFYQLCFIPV
// reported AC50 for each item listed

[
  {
    "smiles data": "Cc1noc(C)c1-c1cncnc1NCc1cccnc1",
    "AC50": "15.8 µM (inconclusive)"
  },
  {
    "smiles data": "C[n+]1cccc(CNC(=O)C=NO)c1",
    "AC50": "10 µM (inconclusive)"
  }
]

QUERY: # input molecule: CCNc1ncc2nc(-c3cccs3)c(=O)n(Cc3cccs3)c2n1 ; wanted: its AC50
RESULT: 10 µM (inconclusive)

---

Each entry below lists one item and its recorded IC50 value.
target: Bcl-2-related protein A1 (Mus musculus, UniProt Q07440); type: functional;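 further: confirmatory dose–response counterscreen on Bfl-1, used to check hits from a UBC13 polyubiquitin inhibitor campaign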
Sequence (Q07440 whole entry): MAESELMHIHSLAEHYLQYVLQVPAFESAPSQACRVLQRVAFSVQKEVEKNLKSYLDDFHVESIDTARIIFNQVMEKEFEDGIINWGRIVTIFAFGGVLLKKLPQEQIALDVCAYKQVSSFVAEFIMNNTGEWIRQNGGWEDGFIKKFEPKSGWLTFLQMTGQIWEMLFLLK
Activity calls are given as the source filed them.

Worked examples, 3 compounds total:
[
  {
    "smiles data": "Cc1ccc(CN2CCC(CNC(=O)c3ccc(NC(=O)C4=CSCCO4)cc3)CC2)cc1",
    "IC50": "> 20 µM (inactive)"
  },
  {
    "smiles data": "C#CCOCCOCCOCCNc1nc(N2CCN(C(=O)CCCCCCCCCCNC(=O)[C@H](CCCCN)n3cc(C)nn3)CC2)nc(N2CCN(C(=O)CCCCCCCCCCNC(=O)[C@@H]([C@H](C)O)n3cc(C)nn3)CC2)n1",
    "IC50": "> 20 µM (inactive)"
  },
  {
    "smiles data": "C#CCOCCOCCOCCNc1nc(N2CCN(C(=O)CCCCCCCCCCNC(=O)[C@H](CO)n3cc(CCCSC)nn3)CC2)nc(N2CCN(C(=O)CCCCCCCCCCNC(=O)[C@H](CCCN=C(N)N)n3cc(C[C@@H](C)CC)nn3)CC2)n1",
    "IC50": "2.33 µM (active)"
  }
]

Next up:
QUERY: Consider the compound C#CCOCCOCCOCCNc1nc(N2CCN(C(=O)CCCCCCCCCCNC(=O)[C@@H](CCSC)n3cc(CCO)nn3)CC2)nc(N2CCN(C(=O)CCCCCCCCCCNC(=O)[C@H]([C@@H](C)CC)n3cc(CCCCN=C(N)N)nn3)CC2)n1 and give its measured IC50.
RESULT: 5.51 µM (active)

---

experiment: NIH3T3 cell viability loss – ATP luminescence, mouse fibroblasts, counter-screen, dose response (AID 2010); assay type: functional, cell-based;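 further: cells exposed to compound for about 90 hours before reading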
Active and inactive are the calls of the source.
reported endpoint: EC50

Sample answers from the record:
[
  {
    "molecule": "CCN(CC)S(=O)(=O)c1ccc2oc(SCC(=O)Nc3cc(C)on3)nc2c1",
    "experimental result": "5.9 µM (active)"
  },
  {
    "molecule": "Cc1ccc(C)c(NC(=S)N(CCc2nc3cc(C)c(C)cc3[nH]2)Cc2cccnc2)c1",
    "experimental result": "> 60 µM (not active)"
  },
  {
    "molecule": "COc1ccc(OC)c(/C=C/c2ccc3cccc(O)c3n2)c1",
    "experimental result": "> 30 µM (not active)"
  },
  {
    "molecule": "O=S(=O)(c1ccc(-c2csc(-c3cccnc3)n2)cc1)N1CCCCC1",
    "experimental result": "> 30 µM (not active)"
  },
  {
    "molecule": "CCCCCCCC[n+]1cccc2c3ccccc3ccc21",
    "experimental result": "8.8 µM (active)"
  },
  {
    "molecule": "O=C(N/N=C/c1ccc(Br)s1)c1ccc([N+](=O)[O-])cc1",
    "experimental result": "8.96 µM (active)"
  },
  {
    "molecule": "c1ccc(Cc2ccc(OCCCNC3CCCC3)cc2)cc1",
    "experimental result": "> 30 µM (not active)"
  },
  {
    "molecule": "Cc1ccc(NC2=C(N3CCCCC3)C(=O)c3ccccc3C2=O)cc1",
    "experimental result": "> 30 µM (not active)"
  }
]

Continue with the molecule presented below.
QUERY: If you can, please state the reported EC50 value of CSc1ccc(CN(C)CCc2ccccn2)cc1 .
RESULT: > 30 µM (not active)

---

target: Cytochrome P450 2D6 (Homo sapiens, UniProt P10635);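 further: CYP2D6 member of a cytochrome P450 panel assay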
Sequence (P10635 whole entry): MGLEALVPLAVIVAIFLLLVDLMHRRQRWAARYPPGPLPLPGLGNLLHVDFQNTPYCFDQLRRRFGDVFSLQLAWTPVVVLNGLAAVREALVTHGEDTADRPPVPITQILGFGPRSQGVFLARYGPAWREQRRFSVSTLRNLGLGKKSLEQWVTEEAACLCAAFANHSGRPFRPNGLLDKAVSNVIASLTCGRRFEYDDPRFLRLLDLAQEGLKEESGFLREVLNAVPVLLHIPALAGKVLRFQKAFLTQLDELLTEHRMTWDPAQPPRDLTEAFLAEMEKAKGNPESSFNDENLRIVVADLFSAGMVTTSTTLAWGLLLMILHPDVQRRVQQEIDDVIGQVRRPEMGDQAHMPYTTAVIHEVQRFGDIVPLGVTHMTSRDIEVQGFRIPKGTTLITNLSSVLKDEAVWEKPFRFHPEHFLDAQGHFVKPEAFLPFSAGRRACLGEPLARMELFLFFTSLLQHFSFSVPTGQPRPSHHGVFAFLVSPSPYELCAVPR
Property: AC50; scope: individual compounds

QUERY: What measured AC50 goes with O=C(c1ccncc1)N1CCC2(CC1)CCN(c1ccccn1)CC2 ?
RESULT: 31.6 µM (inconclusive)

QUERY: Consider the compound shown here: O=C1C2Sc3nc(O)sc3C(c3ccccc3)C2C(=O)N1c1ccc(Cl)cc1 (stereo unspecified) What is its recorded AC50?
RESULT: 22.4 µM (inconclusive)

QUERY: Give its AC50 value. Item: Cc1cccc(CNc2cc(-c3c(C)noc3C)ncn2)c1
RESULT: 31.6 µM (inconclusive)

QUERY: Suppose we examine the compound Cc1[nH]c2c(C)cccc2c1CCNC(=O)c1ccc2c(c1[N+](=O)[O-])C(=O)c1ccccc1C2=O ; what AC50 value has been reported?
RESULT: 2 µM (inconclusive)

QUERY: Fill in the blank: the reported AC50 of COc1cccc(Cn2c(=O)c(-c3cccc(F)c3)nc3cncnc32)c1 is ____.
RESULT: 20 µM (inconclusive)

QUERY: Using the record for CCN1C(=O)/C(=C2\SC(N3CCCCC3)=NC2=O)c2ccccc21 , report its AC50.
RESULT: 3.16 µM (inconclusive)

QUERY: For the compound Clc1ccc(CSc2nnc(-c3sccc3-n3cccc3)o2)cc1 , what AC50 is on record?
RESULT: 11.2 µM (inconclusive)

QUERY: // returns reported AC50 for input O=C(CCn1nc(-c2ccc(Cl)cc2)c2ccccc2c1=O)NCCN1CCOCC1
RESULT: 15.8 µM (inconclusive)

QUERY: Give its AC50 value. Item: CCN1CCN(c2ccc(NC(=O)C(C)C)cc2Cl)CC1
RESULT: 14.1 µM (inconclusive)

QUERY: Param item = COc1cccc(-c2cncnc2NCc2cccs2)c1 ; retrieve measured AC50.
RESULT: 20 µM (inconclusive)

QUERY: Data request, read-out AC50, for O=C(c1cc(C(F)(F)F)cc(C(F)(F)F)c1)N1CCC[C@@]2(CCN(c3ccccn3)C2)C1
RESULT: 20 µM (inconclusive)
